# target or test system: Ataxin-2 (Homo sapiens) (UniProt Q99700)
# Sequence (Q99700 whole entry): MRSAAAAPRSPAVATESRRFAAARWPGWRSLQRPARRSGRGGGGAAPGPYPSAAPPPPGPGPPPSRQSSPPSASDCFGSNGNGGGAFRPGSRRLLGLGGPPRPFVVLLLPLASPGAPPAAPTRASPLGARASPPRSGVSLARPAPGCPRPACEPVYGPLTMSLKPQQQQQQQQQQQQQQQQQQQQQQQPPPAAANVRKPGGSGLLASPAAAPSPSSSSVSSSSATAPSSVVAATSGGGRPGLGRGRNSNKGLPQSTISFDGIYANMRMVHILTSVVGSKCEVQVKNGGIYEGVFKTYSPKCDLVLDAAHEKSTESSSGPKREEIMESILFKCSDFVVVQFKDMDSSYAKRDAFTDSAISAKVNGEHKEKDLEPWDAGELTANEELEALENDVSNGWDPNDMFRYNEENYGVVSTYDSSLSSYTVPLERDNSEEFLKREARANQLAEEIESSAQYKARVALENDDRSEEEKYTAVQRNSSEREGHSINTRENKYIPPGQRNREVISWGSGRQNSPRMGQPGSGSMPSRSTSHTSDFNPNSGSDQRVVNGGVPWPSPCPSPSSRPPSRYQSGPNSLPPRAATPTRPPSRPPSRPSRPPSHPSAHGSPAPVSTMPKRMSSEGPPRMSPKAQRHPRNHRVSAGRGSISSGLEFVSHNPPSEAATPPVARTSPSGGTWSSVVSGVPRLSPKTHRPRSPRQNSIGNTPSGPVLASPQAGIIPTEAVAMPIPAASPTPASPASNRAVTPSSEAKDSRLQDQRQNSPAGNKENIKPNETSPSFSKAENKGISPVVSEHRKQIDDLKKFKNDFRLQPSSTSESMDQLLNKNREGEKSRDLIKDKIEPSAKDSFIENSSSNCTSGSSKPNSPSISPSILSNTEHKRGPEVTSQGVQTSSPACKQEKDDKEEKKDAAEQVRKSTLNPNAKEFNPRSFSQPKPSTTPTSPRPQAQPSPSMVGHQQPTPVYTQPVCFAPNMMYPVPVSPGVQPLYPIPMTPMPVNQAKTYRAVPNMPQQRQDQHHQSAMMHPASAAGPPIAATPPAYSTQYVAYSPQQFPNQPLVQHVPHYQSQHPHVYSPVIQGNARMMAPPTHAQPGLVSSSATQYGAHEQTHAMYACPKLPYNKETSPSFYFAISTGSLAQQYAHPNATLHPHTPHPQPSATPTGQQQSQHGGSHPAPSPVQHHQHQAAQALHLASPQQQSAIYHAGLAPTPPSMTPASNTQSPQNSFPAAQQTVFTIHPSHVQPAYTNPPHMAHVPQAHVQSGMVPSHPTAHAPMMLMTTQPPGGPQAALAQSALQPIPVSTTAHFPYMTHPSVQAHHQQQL
# experiment description: qHTS for Inhibitors of ATXN expression.
# Assay type: functional
In all, about 400,000 compounds went through this assay and about 2,100 (0.53%) were called active. Roughly 14% stayed inconclusive and do not appear here. The rule behind the calls is not given here. For the sample, actives were picked, then their nearest neighbours and some compounds at random.
Outcomes: True for active, False for inactive

{"molecule": "CC(C)(C)c1ccc(C2=CC(c3ccccc3)n3ncnc3N2)cc1 (stereo unspecified)", "target or test system": "Ataxin-2 (Homo sapiens) (UniProt Q99700)", "class": "False"}
{"molecule": "CCOc1cc(/C=C/C(=O)Nc2ccc(C(=O)NCCN(CC)CC)cc2)ccc1OCC(C)C", "target or test system": "Ataxin-2 (Homo sapiens) (UniProt Q99700)", "class": "True"}
{"molecule": "COc1ccc(OC)c(/C=C/C(=O)Nc2ccc(C(=O)OCCC(C)C)cc2)c1", "target or test system": "Ataxin-2 (Homo sapiens) (UniProt Q99700)", "class": "False"}
{"molecule": "COC(=O)C=C1CCC2C3CCC4=CC(=O)C(Br)CC4(C)C3C(=O)CC12C (stereo unspecified)", "target or test system": "Ataxin-2 (Homo sapiens) (UniProt Q99700)", "class": "True"}
{"molecule": "COCCNC(=O)/C(C#N)=C/c1c(N2CCN(C)CC2)nc2c(C)cccn2c1=O", "target or test system": "Ataxin-2 (Homo sapiens) (UniProt Q99700)", "class": "False"}
{"molecule": "CCCN(CC(=O)Nc1ccccc1C)C(=O)c1ccc(N2CCCC2=O)cc1", "target or test system": "Ataxin-2 (Homo sapiens) (UniProt Q99700)", "class": "False"}
{"molecule": "COc1ccc(NC(=O)CN2CCN(CC(=O)Nc3ccc(OC)cc3)CC2)cc1", "target or test system": "Ataxin-2 (Homo sapiens) (UniProt Q99700)", "class": "False"}
{"molecule": "COc1ccc(NC(=O)CC2Sc3ncnn3C2=O)cc1 (stereo unspecified)", "target or test system": "Ataxin-2 (Homo sapiens) (UniProt Q99700)", "class": "True"}
{"molecule": "COc1ccc(CN2C(=O)c3cccnc3C2=O)cc1S(=O)(=O)N1CCOc2ccccc21", "target or test system": "Ataxin-2 (Homo sapiens) (UniProt Q99700)", "class": "False"}
{"molecule": "COc1ccc(NC(=O)CSCC(=O)NCCc2ccccn2)cc1", "target or test system": "Ataxin-2 (Homo sapiens) (UniProt Q99700)", "class": "False"}
{"molecule": "Cc1cc(=O)oc2cc3c(cc12)OCCN3", "target or test system": "Ataxin-2 (Homo sapiens) (UniProt Q99700)", "class": "False"}
